Here the recorded Kd is given for each entry.
- TESTED_ON: T1, hpTEN (Hansenula polymorpha (Ogataea …, UniProt R4IT35 1-159))
- T1 sequence: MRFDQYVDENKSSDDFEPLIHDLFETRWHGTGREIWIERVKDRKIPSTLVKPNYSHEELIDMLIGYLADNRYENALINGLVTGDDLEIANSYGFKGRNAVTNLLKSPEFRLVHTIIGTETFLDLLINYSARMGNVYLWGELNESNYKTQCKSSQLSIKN
- MEASUREMENT_DESCRIPTION: NMR titration
MEASUREMENT_LABEL: Kd (mM)

[[record]]
binder = "E3 RNA-DNA heteroduplex 1 (DNA:RNA) DNA: GGGTGGCG ?: CGCCACCC"
measurement_label = "Kd"
readout_number = 1.4

[[record]]
binder = "E9 RNA-DNA half-fork (DNA:RNA) DNA: GGGTGGC RNA: GCCACCCUUCGUCA"
measurement_label = "Kd"
readout_number = 4

[[record]]
binder = "CGCCACCCCGCCAC (ssRNA) [E5 ssRNA 2]"
measurement_label = "Kd"
readout_number = 5

[[record]]
binder = "CGCCACCC (ssRNA) [E1 ssRNA 1]"
measurement_label = "Kd"
readout_number = 5

[[record]]
binder = "E4 RNA-DNA heteroduplex 2 (DNA:RNA) DNA: GTGGCGGGGTGGCG ?: CGCCACCCCGCCAC"
measurement_label = "Kd"
readout_number = 0.9


Provenance of the data: paper PMC5814841
